- Target system: DLG4_2, P78352
- Sequence (P78352 155-259): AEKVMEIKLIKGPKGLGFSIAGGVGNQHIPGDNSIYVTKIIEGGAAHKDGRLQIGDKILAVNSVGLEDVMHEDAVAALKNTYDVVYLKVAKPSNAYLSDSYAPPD
- Method description: holdup assay
- Design: key: below the threshold = too weak to quantify, mostly under pKd 3.1 to 4
- Settings: plain residues with an end cap or a label only (N-terminal biotin on a linker: ado-ado)
Quantity measured: pKd

YAEKRMLTEV [KCNA6, P17658]: 4.23
NTALVESEDL [PALLS, Q8WX93;Q8WX93-1]: below the threshold
GVHSNDHSVV [LPAR1, Q92633]: 4.01
SGDGKTSVWI [GJC1, P36383]: 3.51
SAGADSETHC [SLCO1B1, Q9Y6L6]: below the threshold
KSRPENGTVC [TMEM178B, H3BS89]: below the threshold
SQPLLVHDDV [KIT, P10721]: below the threshold
KPDKQEEFYA [SDC3, O75056]: below the threshold
SSSVNVSSNL [CXCR1, P25024]: below the threshold
NNMAFETTHF [SLC5A12, Q1EHB4]: below the threshold

Q: Look at this binder and give its reported pKd. MQILSKPEFI [NPSR1, Q6W5P4]
A: below the threshold

Q: // pKd lookup, key: VISSDDLTEL [CAPN6, Q9Y6Q1]
A: below the threshold
